B1: scFv; the commonest letter at each place (parent)
chain 1: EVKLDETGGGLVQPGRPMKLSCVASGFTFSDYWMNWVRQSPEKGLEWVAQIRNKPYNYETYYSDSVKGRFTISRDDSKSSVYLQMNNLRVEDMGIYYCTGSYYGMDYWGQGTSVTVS
chain 2: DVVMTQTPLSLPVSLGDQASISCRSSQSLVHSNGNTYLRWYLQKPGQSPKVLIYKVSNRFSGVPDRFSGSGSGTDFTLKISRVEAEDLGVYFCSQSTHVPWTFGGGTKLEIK

Variants of: B1
Assay: yeast surface expression (ratio to wild type); higher = more expressed
Conditions: format: scFv 4-4-20, heavy + light
readout-kind: yeast surface expression
Lab note: record the figure alone, no unit after it.

Record excerpt, results attached:
            variant_notation  value_reported
0               chain 1 V37Q           0.731
1  chain 1 S101I Y103T W108D           0.293
2        chain 1 G100S Y103P           0.689
3        chain 1 Y103C M105I           0.621

Documented yeast surface expression of chain 1 F29M D31I : 0.518

// yeast surface expression value for chain 1 F29V W36S : 0.52

// recorded yeast surface expression for chain 1 S101V D106I Y107C : 0.165

Lab note: chain 1 G100I gave yeast surface expression of 0.852

GET /value?item= chain 1 G109C &field=yeast surface expression returns 0.39

yeast surface expression in this record for chain 1 G100C S101A : 0.711

Recorded result, chain 1 D106A W108M , yeast surface expression: 0.713

The variant listed as chain 1 Y102L has a reported yeast surface expression of 0.974

// field: yeast surface expression; key: chain 1 G104S Y107G ; value = 0.303

Sourced from the FLAb antibody collection (doi:10.7554/elife.23156)
